Below are Average (percentage cell inhibition), Dmastoparan MDA-MB231 12.5uM values recorded for MDA-MB-231 cells.
Please state the figure in %; there is no need to write the unit.

compound: CC[C@H](C)[C@H](N)C(=O)N[C@@H](CC(N)=O)C(=O)N[C@@H](CC(C)C)C(=O)N[C@@H](CCCCN)C(=O)N[C@@H](C)C(=O)N[C@@H](CC(C)C)C(=O)N[C@@H](C)C(=O)N[C@@H](C)C(=O)N[C@@H](CC(C)C)C(=O)N[C@H](C(=O)N[C@@H](CCCCN)C(=O)N[C@@H](CCCCN)C(=O)N[C@H](C(=O)N[C@@H](CC(C)C)C(N)=O)[C@@H](C)CC)[C@@H](C)CC [I10]
measured-number: 54.8759

QUERY: For the compound CC[C@H](C)[C@H](N)C(=O)N[C@@H](CC(N)=O)C(=O)N[C@@H](CC(C)C)C(=O)N[C@@H](CCCCN)C(=O)N[C@@H](C)C(=O)N[C@@H](CC(C)C)C(=O)N[C@@H](C)C(=O)N[C@@H](C)C(=O)N[C@@H](CCC(=O)O)C(=O)N[C@@H](C)C(=O)N[C@@H](CCCCN)C(=O)N[C@@H](CCCCN)C(=O)N[C@H](C(=O)N[C@@H](CC(C)C)C(N)=O)[C@@H](C)CC [E9] , what Average (percentage cell inhibition), Dmastoparan MDA-MB231 12.5uM is on record?
RESULT: 4.314

QUERY: For the compound CC[C@H](C)[C@H](NC(=O)[C@H](CCCCN)NC(=O)[C@H](CCCCN)NC(=O)[C@H](C)NC(=O)[C@H](CC(C)C)NC(=O)[C@H](C)NC(=O)[C@H](C)NC(=O)[C@H](CC(C)C)NC(=O)[C@H](C)NC(=O)[C@H](CCCCN)NC(=O)[C@H](CC(C)C)NC(=O)[C@H](CC(N)=O)NC(=O)[C@@H](N)Cc1ccc(O)cc1)C(=O)N[C@@H](CC(C)C)C(N)=O [Y1] , what Average (percentage cell inhibition), Dmastoparan MDA-MB231 12.5uM is on record?
RESULT: 48.2987

----------
System: PBMC
Settings: 12.5 µM
measurement-name: Average (percentage cell inhibition), Mastoparan PBMC (%)
Please state the figure in %; there is no need to write the unit.

molecule: CC[C@H](C)[C@H](N)C(=O)N[C@@H](CC(N)=O)C(=O)N[C@@H](CC(C)C)C(=O)N[C@@H](CCCCN)C(=O)N[C@@H](C)C(=O)N[C@@H](CC(C)C)C(=O)N[C@H](C(=O)N[C@@H](C)C(=O)N[C@@H](CC(C)C)C(=O)N[C@@H](C)C(=O)N[C@@H](CCCCN)C(=O)N[C@@H](CCCCN)C(=O)N[C@H](C(=O)N[C@@H](CC(C)C)C(N)=O)[C@@H](C)CC)[C@@H](C)O [T7]
measured-number: 3.741

# evaluate next
QUERY: Find the measured Average (percentage cell inhibition), Mastoparan PBMC: item CC[C@H](C)[C@H](N)C(=O)N[C@@H](CC(N)=O)C(=O)N[C@@H](CC(C)C)C(=O)N[C@@H](CCCCN)C(=O)N[C@@H](C)C(=O)N[C@@H](CC(C)C)C(=O)N[C@@H](C)C(=O)N[C@@H](C)C(=O)N[C@@H](CC(C)C)C(=O)N[C@@H](CCC(=O)O)C(=O)N[C@@H](CCCCN)C(=O)N[C@@H](CCCCN)C(=O)N[C@H](C(=O)N[C@@H](CC(C)C)C(N)=O)[C@@H](C)CC [E10] , target or system PBMC.
RESULT: -0.2344

----------
Below are Average (percentage cell inhibition), Dmastoparan MDA-MB231 12.5uM values recorded for MDA-MB-231 cells.
Please state the figure in %; there is no need to write the unit.

As a guide, the following entries are already answered.
mol: CC[C@H](C)[C@H](N)C(=O)N[C@@H](CC(N)=O)C(=O)N[C@@H](CC(C)C)C(=O)N[C@@H](CCCCN)C(=O)N[C@@H](CO)C(=O)N[C@@H](CC(C)C)C(=O)N[C@@H](C)C(=O)N[C@@H](C)C(=O)N[C@@H](CC(C)C)C(=O)N[C@@H](C)C(=O)N[C@@H](CCCCN)C(=O)N[C@@H](CCCCN)C(=O)N[C@H](C(=O)N[C@@H](CC(C)C)C(N)=O)[C@@H](C)CC
measured-number: 26.0666
--
mol: CC[C@H](C)[C@H](N)C(=O)N[C@@H](CC(N)=O)C(=O)N[C@@H](CC(C)C)C(=O)N[C@H](C(=O)N[C@@H](C)C(=O)N[C@@H](CC(C)C)C(=O)N[C@@H](C)C(=O)N[C@@H](C)C(=O)N[C@@H](CC(C)C)C(=O)N[C@@H](C)C(=O)N[C@@H](CCCCN)C(=O)N[C@@H](CCCCN)C(=O)N[C@H](C(=O)N[C@@H](CC(C)C)C(N)=O)[C@@H](C)CC)C(C)C
measured-number: 32.9047

# evaluate next
QUERY: For the molecule CC[C@H](C)[C@H](N)C(=O)N[C@@H](CC(N)=O)C(=O)N[C@@H](CC(C)C)C(=O)N[C@@H](CCCCN)C(=O)N[C@@H](C)C(=O)N[C@@H](CC(C)C)C(=O)N[C@@H](C)C(=O)N[C@@H](C)C(=O)N[C@@H](CCC(N)=O)C(=O)N[C@@H](C)C(=O)N[C@@H](CCCCN)C(=O)N[C@@H](CCCCN)C(=O)N[C@H](C(=O)N[C@@H](CC(C)C)C(N)=O)[C@@H](C)CC , what Average (percentage cell inhibition), Dmastoparan MDA-MB231 12.5uM is on record?
RESULT: 30.6331

----------
Below are Average (percentage cell inhibition), Dmastoparan MDA-MB231 12.5uM values recorded for MDA-MB-231 cells.
Respond with a number, then the unit of measure.

mol: CC[C@H](C)[C@H](N)C(=O)N[C@@H](CC(N)=O)C(=O)N[C@@H](CC(C)C)C(=O)N[C@@H](CCCCN)C(=O)N[C@@H](Cc1c[nH]cn1)C(=O)N[C@@H](CC(C)C)C(=O)N[C@@H](C)C(=O)N[C@@H](C)C(=O)N[C@@H](CC(C)C)C(=O)N[C@@H](C)C(=O)N[C@@H](CCCCN)C(=O)N[C@@H](CCCCN)C(=O)N[C@H](C(=O)N[C@@H](CC(C)C)C(N)=O)[C@@H](C)CC
result: 26.5106%

QUERY: For the molecule CC[C@H](C)[C@H](N)C(=O)N[C@@H](CC(N)=O)C(=O)N[C@@H](C)C(=O)N[C@@H](CCCCN)C(=O)N[C@@H](C)C(=O)N[C@@H](CC(C)C)C(=O)N[C@@H](C)C(=O)N[C@@H](C)C(=O)N[C@@H](CC(C)C)C(=O)N[C@@H](C)C(=O)N[C@@H](CCCCN)C(=O)N[C@@H](CCCCN)C(=O)N[C@H](C(=O)N[C@@H](CC(C)C)C(N)=O)[C@@H](C)CC , what Average (percentage cell inhibition), Dmastoparan MDA-MB231 12.5uM is on record?
RESULT: 17.9778%

QUERY: For the molecule CC[C@H](C)[C@H](N)C(=O)N[C@@H](CC(N)=O)C(=O)N[C@@H](CCC(=O)O)C(=O)N[C@@H](CCCCN)C(=O)N[C@@H](C)C(=O)N[C@@H](CC(C)C)C(=O)N[C@@H](C)C(=O)N[C@@H](C)C(=O)N[C@@H](CC(C)C)C(=O)N[C@@H](C)C(=O)N[C@@H](CCCCN)C(=O)N[C@@H](CCCCN)C(=O)N[C@H](C(=O)N[C@@H](CC(C)C)C(N)=O)[C@@H](C)CC , what Average (percentage cell inhibition), Dmastoparan MDA-MB231 12.5uM is on record?
RESULT: 14.5974%

----------
The following molecules are shown together with reported Average (percentage cell inhibition), Mastoparan PBMC values.
Test system: PBMC
Settings: 12.5 µM
Please state the figure in %; there is no need to write the unit.

As a guide, the following entries are already answered.
molecule: CC[C@H](C)[C@H](N)C(=O)N[C@@H](CC(N)=O)C(=O)N[C@@H](CC(C)C)C(=O)N[C@@H](CCCCN)C(=O)N[C@@H](C)C(=O)N[C@@H](CC(C)C)C(=O)N[C@@H](C)C(=O)N[C@@H](C)C(=O)N[C@@H](CC(C)C)C(=O)N[C@@H](Cc1c[nH]c2ccccc12)C(=O)N[C@@H](CCCCN)C(=O)N[C@@H](CCCCN)C(=O)N[C@H](C(=O)N[C@@H](CC(C)C)C(N)=O)[C@@H](C)CC [W10]
measured-number: 15.3863

molecule: CC[C@H](C)[C@H](N)C(=O)N[C@@H](CCCCN)C(=O)N[C@@H](CC(C)C)C(=O)N[C@@H](CCCCN)C(=O)N[C@@H](C)C(=O)N[C@@H](CC(C)C)C(=O)N[C@@H](C)C(=O)N[C@@H](C)C(=O)N[C@@H](CC(C)C)C(=O)N[C@@H](C)C(=O)N[C@@H](CCCCN)C(=O)N[C@@H](CCCCN)C(=O)N[C@H](C(=O)N[C@@H](CC(C)C)C(N)=O)[C@@H](C)CC [K2]
measured-number: 14.3506

molecule: CC[C@H](C)[C@H](N)C(=O)N[C@@H](CC(N)=O)C(=O)N[C@@H](CC(C)C)C(=O)N[C@@H](CCCCN)C(=O)N[C@@H](C)C(=O)N[C@@H](CC(C)C)C(=O)N[C@@H](C)C(=O)N[C@@H](C)C(=O)N[C@@H](CC(C)C)C(=O)N[C@@H](CC(C)C)C(=O)N[C@@H](CCCCN)C(=O)N[C@@H](CCCCN)C(=O)N[C@H](C(=O)N[C@@H](CC(C)C)C(N)=O)[C@@H](C)CC [L10]
measured-number: 52.7294

molecule: CC[C@H](C)[C@H](N)C(=O)N[C@@H](CC(N)=O)C(=O)N[C@@H](CC(C)C)C(=O)N[C@@H](CCCCN)C(=O)N[C@@H](C)C(=O)N[C@@H](CC(C)C)C(=O)N[C@@H](C)C(=O)N[C@@H](C)C(=O)N[C@@H](CC(C)C)C(=O)N[C@@H](C)C(=O)N[C@@H](CCCCN)C(=O)N[C@@H](CCCCN)C(=O)N[C@H](C(=O)N[C@@H](CC(C)C)C(N)=O)[C@@H](C)CC [Lab Mastoparan L, reference compound]
measured-number: 12.353

molecule: CC[C@H](C)[C@H](N)C(=O)N[C@@H](CC(N)=O)C(=O)N[C@@H](CC(C)C)C(=O)N[C@@H](CCCCN)C(=O)NCC(=O)N[C@@H](CC(C)C)C(=O)N[C@@H](C)C(=O)N[C@@H](C)C(=O)N[C@@H](CC(C)C)C(=O)N[C@@H](C)C(=O)N[C@@H](CCCCN)C(=O)N[C@@H](CCCCN)C(=O)N[C@H](C(=O)N[C@@H](CC(C)C)C(N)=O)[C@@H](C)CC [G5]
measured-number: 4.313

QUERY: For the molecule CC[C@H](C)[C@H](N)C(=O)N[C@@H](CC(N)=O)C(=O)N[C@@H](CC(C)C)C(=O)N[C@@H](CCCCN)C(=O)N[C@@H](C)C(=O)N[C@@H](CC(C)C)C(=O)N[C@@H](C)C(=O)N[C@@H](C)C(=O)N[C@@H](CC(C)C)C(=O)N[C@@H](CCC(N)=O)C(=O)N[C@@H](CCCCN)C(=O)N[C@@H](CCCCN)C(=O)N[C@H](C(=O)N[C@@H](CC(C)C)C(N)=O)[C@@H](C)CC [Q10] , what Average (percentage cell inhibition), Mastoparan PBMC is on record?
RESULT: 12.3938

QUERY: For the molecule CC[C@H](C)[C@H](N)C(=O)N[C@@H](CC(N)=O)C(=O)N[C@@H](CC(C)C)C(=O)N[C@@H](CCCCN)C(=O)N[C@@H](C)C(=O)N[C@@H](CC(C)C)C(=O)N[C@@H](C)C(=O)N[C@@H](C)C(=O)N[C@@H](CC(C)C)C(=O)N[C@@H](C)C(=O)N[C@@H](CCCCN)C(=O)N[C@@H](CCC(N)=O)C(=O)N[C@H](C(=O)N[C@@H](CC(C)C)C(N)=O)[C@@H](C)CC [Q12] , what Average (percentage cell inhibition), Mastoparan PBMC is on record?
RESULT: -3.934

QUERY: For the molecule CC[C@H](C)[C@H](N)C(=O)N[C@@H](CC(N)=O)C(=O)N[C@@H](CC(C)C)C(=O)N[C@@H](CCCCN)C(=O)N[C@@H](C)C(=O)N[C@@H](CC(C)C)C(=O)N[C@@H](C)C(=O)N[C@@H](C)C(=O)N[C@@H](CC(C)C)C(=O)N[C@@H](C)C(=O)N[C@@H](CCCCN)C(=O)N[C@@H](CCCCN)C(=O)N[C@H](C(=O)N[C@H](C(N)=O)[C@@H](C)CC)[C@@H](C)CC [I14] , what Average (percentage cell inhibition), Mastoparan PBMC is on record?
RESULT: 14.5337

QUERY: For the molecule CC[C@H](C)[C@H](N)C(=O)N[C@@H](CC(C)C)C(=O)N[C@@H](CC(C)C)C(=O)N[C@@H](CCCCN)C(=O)N[C@@H](C)C(=O)N[C@@H](CC(C)C)C(=O)N[C@@H](C)C(=O)N[C@@H](C)C(=O)N[C@@H](CC(C)C)C(=O)N[C@@H](C)C(=O)N[C@@H](CCCCN)C(=O)N[C@@H](CCCCN)C(=O)N[C@H](C(=O)N[C@@H](CC(C)C)C(N)=O)[C@@H](C)CC [L2] , what Average (percentage cell inhibition), Mastoparan PBMC is on record?
RESULT: 76.9101

QUERY: For the molecule CC[C@H](C)[C@H](N)C(=O)N[C@@H](CC(N)=O)C(=O)N[C@@H](CC(C)C)C(=O)N[C@@H](CCCCN)C(=O)N[C@@H](C)C(=O)N[C@@H](CC(C)C)C(=O)N[C@@H](C)C(=O)N1CCC[C@H]1C(=O)N[C@@H](CC(C)C)C(=O)N[C@@H](C)C(=O)N[C@@H](CCCCN)C(=O)N[C@@H](CCCCN)C(=O)N[C@H](C(=O)N[C@@H](CC(C)C)C(N)=O)[C@@H](C)CC [P8] , what Average (percentage cell inhibition), Mastoparan PBMC is on record?
RESULT: -8.536

QUERY: For the molecule CC[C@H](C)[C@H](N)C(=O)N[C@@H](CO)C(=O)N[C@@H](CC(C)C)C(=O)N[C@@H](CCCCN)C(=O)N[C@@H](C)C(=O)N[C@@H](CC(C)C)C(=O)N[C@@H](C)C(=O)N[C@@H](C)C(=O)N[C@@H](CC(C)C)C(=O)N[C@@H](C)C(=O)N[C@@H](CCCCN)C(=O)N[C@@H](CCCCN)C(=O)N[C@H](C(=O)N[C@@H](CC(C)C)C(N)=O)[C@@H](C)CC [S2] , what Average (percentage cell inhibition), Mastoparan PBMC is on record?
RESULT: 20.6714

Values from paper PMC12748989
